Reported Dmax is given for each of the following compounds.
measured_on: Ikaros (Homo sapiens, UniProt Q13422)
Construct: fluorescently labelled antibodies against Helios and Ikaros; endogenous in cells; host or cells: Jurkat cells
Sequence (Q96SW2 whole entry partner): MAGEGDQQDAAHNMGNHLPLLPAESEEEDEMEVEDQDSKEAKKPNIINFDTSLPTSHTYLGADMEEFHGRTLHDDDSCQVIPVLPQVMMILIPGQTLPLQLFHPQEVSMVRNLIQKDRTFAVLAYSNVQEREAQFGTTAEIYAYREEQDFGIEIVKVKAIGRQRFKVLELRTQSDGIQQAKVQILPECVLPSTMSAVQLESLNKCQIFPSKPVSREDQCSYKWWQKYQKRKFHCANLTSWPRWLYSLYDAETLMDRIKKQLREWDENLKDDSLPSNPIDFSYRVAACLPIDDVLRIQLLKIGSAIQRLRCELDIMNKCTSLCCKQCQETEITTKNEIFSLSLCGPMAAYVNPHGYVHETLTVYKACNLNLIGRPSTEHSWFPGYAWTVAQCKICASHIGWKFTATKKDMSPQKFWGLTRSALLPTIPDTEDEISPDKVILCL
Sequence (Q16531 whole entry partner): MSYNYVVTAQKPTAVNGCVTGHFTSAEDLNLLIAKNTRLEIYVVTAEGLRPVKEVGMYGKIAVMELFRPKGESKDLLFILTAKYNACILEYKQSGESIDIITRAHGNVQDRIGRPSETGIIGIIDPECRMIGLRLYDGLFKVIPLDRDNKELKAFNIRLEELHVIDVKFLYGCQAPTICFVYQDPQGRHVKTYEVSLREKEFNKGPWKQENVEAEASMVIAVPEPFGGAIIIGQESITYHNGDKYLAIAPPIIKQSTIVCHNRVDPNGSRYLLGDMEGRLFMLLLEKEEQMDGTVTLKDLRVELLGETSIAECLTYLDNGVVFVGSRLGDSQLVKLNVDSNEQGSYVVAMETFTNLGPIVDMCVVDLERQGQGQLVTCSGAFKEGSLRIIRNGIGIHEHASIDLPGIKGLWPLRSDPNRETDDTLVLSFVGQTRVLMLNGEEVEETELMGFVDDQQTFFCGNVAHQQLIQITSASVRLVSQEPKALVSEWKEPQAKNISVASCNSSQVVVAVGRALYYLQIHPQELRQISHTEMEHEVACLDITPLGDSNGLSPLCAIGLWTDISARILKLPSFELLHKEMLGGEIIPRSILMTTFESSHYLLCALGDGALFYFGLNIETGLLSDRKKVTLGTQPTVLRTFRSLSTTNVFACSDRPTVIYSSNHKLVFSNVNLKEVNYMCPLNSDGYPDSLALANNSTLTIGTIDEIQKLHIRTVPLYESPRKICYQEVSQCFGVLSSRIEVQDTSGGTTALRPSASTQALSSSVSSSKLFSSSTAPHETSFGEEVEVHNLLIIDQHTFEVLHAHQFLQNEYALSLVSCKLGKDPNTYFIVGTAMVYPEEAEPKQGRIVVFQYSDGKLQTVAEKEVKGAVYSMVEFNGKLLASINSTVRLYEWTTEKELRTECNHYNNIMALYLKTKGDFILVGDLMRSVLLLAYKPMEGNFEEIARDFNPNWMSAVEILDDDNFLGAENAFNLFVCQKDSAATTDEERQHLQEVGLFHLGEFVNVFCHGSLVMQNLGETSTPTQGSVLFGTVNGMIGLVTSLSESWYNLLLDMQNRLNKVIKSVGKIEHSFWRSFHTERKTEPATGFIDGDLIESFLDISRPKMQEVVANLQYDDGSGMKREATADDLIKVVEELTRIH
Sequence (Q13422 whole entry): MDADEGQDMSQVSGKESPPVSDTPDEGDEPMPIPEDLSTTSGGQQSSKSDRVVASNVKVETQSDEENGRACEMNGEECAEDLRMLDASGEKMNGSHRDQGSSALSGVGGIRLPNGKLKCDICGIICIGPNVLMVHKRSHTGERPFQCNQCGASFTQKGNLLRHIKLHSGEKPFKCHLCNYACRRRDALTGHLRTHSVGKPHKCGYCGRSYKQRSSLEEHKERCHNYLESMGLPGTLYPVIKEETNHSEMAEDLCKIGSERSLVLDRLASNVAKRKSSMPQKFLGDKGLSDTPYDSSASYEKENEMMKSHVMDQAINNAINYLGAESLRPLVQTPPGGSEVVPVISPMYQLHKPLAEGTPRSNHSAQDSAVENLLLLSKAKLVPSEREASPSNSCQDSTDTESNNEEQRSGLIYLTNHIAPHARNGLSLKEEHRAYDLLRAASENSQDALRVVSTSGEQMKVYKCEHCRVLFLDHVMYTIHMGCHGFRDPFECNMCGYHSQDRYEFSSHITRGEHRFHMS
assay_summary: Helios Cellular Degradation Assay, Ikaros readout (flow cytometry, Ikaros-Alexa488 antibody staining, 72 h)
Assay type: cell-based
recorded_conditions: Jurkat, Jurkat cells, 72 h incubation, flow cytometry; read-out: Ikaros Dmax
Description: Helios Cellular Degradation Assay Jurkat cells were plated at 80,000 cells/well in 40 μL RPMI+10% FBS in a 384 well cell culture plate prior to using acoustic dispensing technology for adding compound of interest. Cell cultures were incubated for 72 h at 37° C. and 5% CO2. […] Stained cells were resuspended in 25 μL of flow cytometry staining buffer (PBS+0.2% BSA) and analyzed using an Intellicyt Ique Plus flow cytometer. […]
Kindly answer with a numeric value in %, unit omitted.

Please review the entries below; each comes with its answer.
CN(CCC(F)(F)F)Cc1ccnc(-c2ccc3c(c2)CN(C2CCC(=O)NC2=O)C3=O)c1 (stereo not shown) = 14
CCN(Cc1ccncc1)Cc1ccnc(-c2ccc3c(c2)CN(C2CCC(=O)NC2=O)C3=O)c1 (stereo not shown) = 33
O=C1CCC(N2Cc3cc(-c4cc(CN(Cc5ccccc5)Cc5ccccc5)ccn4)ccc3C2=O)C(=O)N1 (stereo not shown) = 31
CC(=O)N1CCN(Cc2ccnc(-c3ccc4c(c3)CN(C3CCC(=O)NC3=O)C4=O)c2)CC1 (stereo not shown) = 13
CC(C)CN(C)Cc1ccnc(-c2ccc3c(c2)CN(C2CCC(=O)NC2=O)C3=O)c1 (stereo not shown) = 4

# compound CN(CCc1ccccn1)Cc1ccnc(-c2ccc3c(c2)CN(C2CCC(=O)NC2=O)C3=O)c1 (stereo not shown) ; its Dmax = 12

# compound O=C1CCC(N2Cc3cc(-c4cc(CNC5CCC(O)CC5)ccn4)ccc3C2=O)C(=O)N1 (stereo not shown) ; its Dmax = 22

* * *

measured_on: Helios (Homo sapiens, UniProt Q96SW2+Q9UKS7)
Construct: fluorescently labelled antibodies against Helios and Ikaros; endogenous in cells; host or cells: Jurkat cells
Sequence (Q9UKS7 whole entry, one chain of several): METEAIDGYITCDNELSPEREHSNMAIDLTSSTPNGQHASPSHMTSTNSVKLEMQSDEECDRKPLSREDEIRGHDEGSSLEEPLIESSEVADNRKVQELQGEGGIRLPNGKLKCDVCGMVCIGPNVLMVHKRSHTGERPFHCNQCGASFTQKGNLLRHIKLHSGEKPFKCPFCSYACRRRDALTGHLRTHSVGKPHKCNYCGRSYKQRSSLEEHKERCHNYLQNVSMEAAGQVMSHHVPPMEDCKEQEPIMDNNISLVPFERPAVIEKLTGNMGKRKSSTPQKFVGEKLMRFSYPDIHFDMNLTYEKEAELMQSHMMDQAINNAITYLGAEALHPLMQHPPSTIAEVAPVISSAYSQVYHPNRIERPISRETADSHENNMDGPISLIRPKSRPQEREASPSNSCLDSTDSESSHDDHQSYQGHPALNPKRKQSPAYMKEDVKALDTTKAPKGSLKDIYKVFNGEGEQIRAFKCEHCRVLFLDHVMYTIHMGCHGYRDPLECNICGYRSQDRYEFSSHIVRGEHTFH
assay_summary: Helios Cellular Degradation Assay (flow cytometry, Helios-PE antibody staining, 72 h)
Type: cell-based
recorded_conditions: Jurkat, Jurkat cells, 72 h incubation, flow cytometry; read-out: Helios Dmax
Reported Dmax is given for each of the following compounds.
Kindly answer with a numeric value in %, unit omitted.

CN(Cc1ccc(Cl)cc1)Cc1ccnc(-c2ccc3c(c2)CN(C2CCC(=O)NC2=O)C3=O)c1 (stereo not shown) [Example 154] = 54

# compound O=C1CCC(N2Cc3cc(-c4cc(CN5CCOCC5)ccn4)ccc3C2=O)C(=O)N1 (stereo not shown) [Example 166] ; its Dmax = 52

# compound CN(Cc1ccnc(-c2ccc3c(c2)CN(C2CCC(=O)NC2=O)C3=O)c1)Cc1cccc2cccnc12 (stereo not shown) [Example 155] ; its Dmax = 57

# compound Cc1ccc(C2CCN(Cc3ccnc(-c4ccc5c(c4)CN(C4CCC(=O)NC4=O)C5=O)c3)CC2)cc1 (stereo not shown) [Example 199] ; its Dmax = 60

* * *

measured_on: Helios (Homo sapiens, UniProt Q96SW2+Q9UKS7)
Construct: fluorescently labelled antibodies against Helios and Ikaros; endogenous in cells; host or cells: Jurkat cells
assay_summary: Helios Cellular Degradation Assay (flow cytometry, Helios-PE antibody staining, 72 h)
Type: cell-based
recorded_conditions: Jurkat, Jurkat cells, 72 h incubation, flow cytometry; read-out: Helios Dmax
Protocol: Helios Cellular Degradation Assay Jurkat cells were plated at 80,000 cells/well in 40 μL RPMI+10% FBS in a 384 well cell culture plate prior to using acoustic dispensing technology for adding compound of interest. Cell cultures were incubated for 72 h at 37° C. and 5% CO2. […] Stained cells were resuspended in 25 μL of flow cytometry staining buffer (PBS+0.2% BSA) and analyzed using an Intellicyt Ique Plus flow cytometer. […]
recorded_endpoint: Dmax (%)
Kindly answer with a numeric value in %, unit omitted.

Please review the entries below; each comes with its answer.
CN(C)C(=O)C1CN(Cc2ccnc(-c3ccc4c(c3)CN(C3CCC(=O)NC3=O)C4=O)c2)C1 (centres unmarked) = 69
C[C@@H]1CCCN1Cc1ccnc(-c2ccc3c(c2)CN(C2CCC(=O)NC2=O)C3=O)c1 (some centres unmarked) = 93
O=C1CCC(N2Cc3cc(-c4cc(CNC5CCN(Cc6ccccc6)C5)ccn4)ccc3C2=O)C(=O)N1 (centres unmarked) = 44

Recorded Dmax for C[C@@H]1CCN(Cc2ccnc(-c3ccc4c(c3)CN(C3CCC(=O)NC3=O)C4=O)c2)C1 (some centres unmarked) on Helios (Homo sapiens, UniProt Q96SW2+Q9UKS7) was 79

Recorded Dmax for O=C1CCC(N2Cc3cc(-c4nccc(CN5CCC5c5ccccc5)c4F)ccc3C2=O)C(=O)N1 (centres unmarked) on Helios (Homo sapiens, UniProt Q96SW2+Q9UKS7) was 60

Recorded Dmax for C[C@H]1CCCN(Cc2ccnc(-c3ccc4c(c3)CN(C3CCC(=O)NC3=O)C4=O)c2)C1 (some centres unmarked) on Helios (Homo sapiens, UniProt Q96SW2+Q9UKS7) was 62

Recorded Dmax for CN(Cc1ccnc(-c2ccc3c(c2)CN(C2CCC(=O)NC2=O)C3=O)c1)CC1CC1 (centres unmarked) on Helios (Homo sapiens, UniProt Q96SW2+Q9UKS7) was 86

Recorded Dmax for CC1CC(NCc2ccnc(-c3ccc4c(c3)CN(C3CCC(=O)NC3=O)C4=O)c2)CCO1 (centres unmarked) on Helios (Homo sapiens, UniProt Q96SW2+Q9UKS7) was 99

* * *

measured_on: Ikaros (Homo sapiens)
Construct: fluorescently labelled antibodies against Helios and Ikaros; endogenous in cells; host or cells: Jurkat cells
assay_summary: Helios Cellular Degradation Assay, Ikaros readout (flow cytometry, Ikaros-Alexa488 antibody staining, 72 h)
Assay type: cell-based
recorded_conditions: Jurkat, Jurkat cells, 72 h incubation, flow cytometry; read-out: Ikaros Dmax
Procedure: Helios Cellular Degradation Assay Jurkat cells were plated at 80,000 cells/well in 40 μL RPMI+10% FBS in a 384 well cell culture plate prior to using acoustic dispensing technology for adding compound of interest. Cell cultures were incubated for 72 h at 37° C. and 5% CO2. […] Stained cells were resuspended in 25 μL of flow cytometry staining buffer (PBS+0.2% BSA) and analyzed using an Intellicyt Ique Plus flow cytometer. […]
recorded_endpoint: Dmax (%)
Kindly answer with a numeric value in %, unit omitted.

Please review the entries below; each comes with its answer.
CN(Cc1ccnc(-c2ccc3c(c2)CN(C2CCC(=O)NC2=O)C3=O)c1)Cc1nccs1 (stereo not shown) = 30
C[C@H]1CCCCN1Cc1ccnc(-c2ccc3c(c2)CN(C2CCC(=O)NC2=O)C3=O)c1 (stereo partly shown) = 16
CN1CCCN(Cc2ccnc(-c3ccc4c(c3)CN(C3CCC(=O)NC3=O)C4=O)c2)CC1 (stereo not shown) = 3

# molecule O=C1CCC(N2Cc3cc(-c4cc(CN[C@H](CCO)c5ccccc5)ccn4)ccc3C2=O)C(=O)N1 (stereo partly shown) ; its Dmax = 9

# molecule O=C1CN(Cc2ccnc(-c3ccc4c(c3)CN(C3CCC(=O)NC3=O)C4=O)c2)CCN1 (stereo not shown) ; its Dmax = 10

# molecule CN(Cc1cccnc1)Cc1ccnc(-c2ccc3c(c2)CN(C2CCC(=O)NC2=O)C3=O)c1 (stereo not shown) ; its Dmax = 25

# molecule NC(=O)C1CCN(Cc2ccnc(-c3ccc4c(c3)CN(C3CCC(=O)NC3=O)C4=O)c2)CC1 (stereo not shown) ; its Dmax = 24

# molecule COC1CN(Cc2ccnc(-c3ccc4c(c3)CN(C3CCC(=O)NC3=O)C4=O)c2)C1 (stereo not shown) ; its Dmax = 20

* * *

Reported DC50 is given for each of the following molecules.
measured_on: Helios (Homo sapiens, UniProt Q96SW2+Q9UKS7)
Construct: fluorescently labelled antibodies against Helios and Ikaros; endogenous in cells; host or cells: Jurkat cells
assay_summary: Helios Cellular Degradation Assay (flow cytometry, Helios-PE antibody staining, 72 h)
Assay type: cell-based
recorded_conditions: Jurkat cells, 72 h incubation, flow cytometry
Kindly answer with a numeric value in nM, unit omitted.

Please review the entries below; each comes with its answer.
O=C1CCC(N2Cc3cc(-c4cc(CN5CC(c6ccccc6)C5)ccn4)ccc3C2=O)C(=O)N1 (stereo not shown) [Example 83] = 7
O=C1CCC(N2Cc3cc(-c4cc(CNCCN5CCOCC5)ccn4)ccc3C2=O)C(=O)N1 (stereo not shown) [Example 88] = 72
O=C1CCC(N2Cc3cc(-c4cc(CNCCc5nc6ccccc6s5)ccn4)ccc3C2=O)C(=O)N1 (stereo not shown) [Example 106] = 72

# next molecule below
# molecule O=C1CCC(N2Cc3cc(-c4cc(CNCc5ccccc5)ccn4)ccc3C2=O)C(=O)N1 (stereo not shown) [Example 2] ; its DC50 = 11

* * *

measured_on: Helios (Homo sapiens, UniProt Q96SW2+Q9UKS7)
Construct: fluorescently labelled antibodies against Helios and Ikaros; endogenous in cells; host or cells: Jurkat cells
assay_summary: Helios Cellular Degradation Assay (flow cytometry, Helios-PE antibody staining, 72 h)
Format: cell-based
recorded_conditions: Jurkat, Jurkat cells, 72 h incubation, flow cytometry; read-out: Helios Dmax
Reported Dmax is given for each of the following compounds.
Kindly answer with a numeric value in %, unit omitted.

Please review the entries below; each comes with its answer.
O=C1CCC(N2Cc3cc(-c4cc(CN5CC(c6cccnc6)C5)ccn4)ccc3C2=O)C(=O)N1 (stereo not shown) = 69
C[C@H](c1ccccc1)N(C)Cc1ccnc(-c2ccc3c(c2)CN(C2CCC(=O)NC2=O)C3=O)c1 (stereo partly shown) = 67
COC(=O)c1ccc(CN(C)Cc2ccnc(-c3ccc4c(c3)CN(C3CCC(=O)NC3=O)C4=O)c2)cc1 (stereo not shown) = 58
Cc1ccc(S(=O)(=O)C2CCN(Cc3ccnc(-c4ccc5c(c4)CN(C4CCC(=O)NC4=O)C5=O)c3)CC2)cc1 (stereo not shown) = 28
CN(Cc1ccc(C#N)cc1)Cc1ccnc(-c2ccc3c(c2)CN(C2CCC(=O)NC2=O)C3=O)c1 (stereo not shown) = 45
CC(CCO)N(C)Cc1ccnc(-c2ccc3c(c2)CN(C2CCC(=O)NC2=O)C3=O)c1 (stereo not shown) = 62

# next compound below
# compound O=C1CCC(N2Cc3cc(-c4cc(CN5CCN(C(=O)C6CCCO6)CC5)ccn4)ccc3C2=O)C(=O)N1 (stereo not shown) ; its Dmax = 35
